Test system: Ramos B cells
Experiment: Ramos pErk assay (anti-IgM stimulated B cells, pErk MSD)
Assay type: cell-based
Conditions: Homo sapiens, Ramos, anti-IgM 5 μg/ml, pErk readout, read-out: average pIC50 (converted)
result_type: IC50

Q) Which IC50 is reported for this molecule? Cc1ccnc(COc2ccc(C(C)(C)C)cc2-c2ccc3c(c2)CNCC3)c1
A) 0.158 to 6.31 µM

Q) Which IC50 reading was recorded for the molecule Cc1ccnc(COc2ccc(C(F)(F)F)cc2-c2ccc3c(c2)CCNCC3)c1 ?
A) 0.158 to 6.31 µM

Q) // returns reported IC50 for input CCc1ccnc(COc2ccc(C(C)=O)cc2-c2ccc3c(c2)CCNCC3)c1
A) 0.158 to 6.31 µM

Q) Entry Cc1ccnc(COc2ccc(Cl)cc2-c2ccc3c(c2)CCNCC3)c1 : reported IC50 = ?
A) 0.158 to 6.31 µM

Q) What IC50 value was documented for this molecule, Cc1ccnc(COc2ccc(Cl)nc2-c2ccc3c(c2)CCNCC3)c1 ?
A) 0.158 to 6.31 µM

Q) Item under review: CCOc1ccc(OCc2cc(C)ccn2)c(-c2ccc3c(c2)CNCC3)c1 . Reported IC50?
A) 0.158 to 6.31 µM

Q) State the recorded IC50 for this entry: CCOc1ccc(OCc2cc(C)ccn2)c(-c2ccc3c(c2)CCNCC3)c1
A) 0.158 to 6.31 µM

Q) Look at this molecule and give its reported IC50. Cc1ccnc(COc2ccc(C(C)(C)C)nc2-c2ccc3c(c2)CCNCC3)c1
A) 0.158 to 6.31 µM

Q) For COc1ccc(OCc2cc(C)ccn2)c(-c2ccc3c(c2)CNCC3)c1 , what is its reported IC50?
A) 0.158 to 6.31 µM
